Entries and their IC50 values follow.
Tested Target: baculovirus-expressed ALK (Homo sapiens, UniProt Q9UM73)
Construct: host or cells: baculovirus expression system
Sequence (Q9UM73 19-1620): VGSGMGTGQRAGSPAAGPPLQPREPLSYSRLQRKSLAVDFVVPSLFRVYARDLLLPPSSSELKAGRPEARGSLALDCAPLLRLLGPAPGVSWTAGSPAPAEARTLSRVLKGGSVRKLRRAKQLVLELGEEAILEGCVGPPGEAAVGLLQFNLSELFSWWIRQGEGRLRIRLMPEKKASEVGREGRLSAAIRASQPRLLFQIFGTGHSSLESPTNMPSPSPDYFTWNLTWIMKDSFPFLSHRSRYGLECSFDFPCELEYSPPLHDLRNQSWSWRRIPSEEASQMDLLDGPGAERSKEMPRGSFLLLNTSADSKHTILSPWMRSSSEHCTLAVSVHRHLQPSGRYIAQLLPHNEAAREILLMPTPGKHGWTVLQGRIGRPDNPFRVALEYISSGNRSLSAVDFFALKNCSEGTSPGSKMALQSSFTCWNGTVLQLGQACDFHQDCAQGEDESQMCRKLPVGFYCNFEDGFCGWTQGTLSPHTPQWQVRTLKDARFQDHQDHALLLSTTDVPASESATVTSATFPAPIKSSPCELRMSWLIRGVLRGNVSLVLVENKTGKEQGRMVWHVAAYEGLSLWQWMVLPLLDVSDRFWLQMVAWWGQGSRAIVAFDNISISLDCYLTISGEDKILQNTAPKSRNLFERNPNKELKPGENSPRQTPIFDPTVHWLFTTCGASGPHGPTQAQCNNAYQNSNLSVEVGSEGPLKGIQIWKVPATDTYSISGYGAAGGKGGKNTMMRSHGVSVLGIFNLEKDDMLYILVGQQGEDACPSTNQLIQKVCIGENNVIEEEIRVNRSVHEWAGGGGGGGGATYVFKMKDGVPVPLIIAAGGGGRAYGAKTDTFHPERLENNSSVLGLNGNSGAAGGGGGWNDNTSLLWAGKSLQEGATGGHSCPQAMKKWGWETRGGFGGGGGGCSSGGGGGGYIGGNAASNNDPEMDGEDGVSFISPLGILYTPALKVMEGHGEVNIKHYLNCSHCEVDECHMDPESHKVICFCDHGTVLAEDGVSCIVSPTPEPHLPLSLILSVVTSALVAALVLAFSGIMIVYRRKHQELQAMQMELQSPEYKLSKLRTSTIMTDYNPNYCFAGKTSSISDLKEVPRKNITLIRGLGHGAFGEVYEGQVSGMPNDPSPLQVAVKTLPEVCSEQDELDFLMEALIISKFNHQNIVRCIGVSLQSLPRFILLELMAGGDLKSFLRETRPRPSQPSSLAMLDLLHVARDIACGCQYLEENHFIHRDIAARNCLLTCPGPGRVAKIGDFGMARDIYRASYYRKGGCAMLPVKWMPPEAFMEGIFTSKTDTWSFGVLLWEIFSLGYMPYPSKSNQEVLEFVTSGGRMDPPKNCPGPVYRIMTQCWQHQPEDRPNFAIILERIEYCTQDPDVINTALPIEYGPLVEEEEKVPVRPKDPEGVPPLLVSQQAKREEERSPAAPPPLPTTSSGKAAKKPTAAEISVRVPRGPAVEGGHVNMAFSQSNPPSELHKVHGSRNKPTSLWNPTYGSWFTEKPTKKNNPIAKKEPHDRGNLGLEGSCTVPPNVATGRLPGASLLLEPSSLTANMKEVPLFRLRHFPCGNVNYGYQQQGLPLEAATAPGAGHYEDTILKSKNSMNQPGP
Measurement Notes: ALK Kinase Assay (ELISA-type, time-resolved fluorescence)
Format: biochemical
Test Settings: 1 μM ATP (Km level); read-out: ALK Activity (ALK Kinase Inhibition, IC50)
Metric Name: IC50

Molecule: CCN1CCN(CC)c2cc(Nc3ncc(Cl)c(Nc4ccccc4-c4nccn4C)n3)ccc2C1
Metric Name: IC50
Measured Value: < 100 nM
//
Molecule: CCNC(=O)c1ccccc1Nc1nc(Nc2ccc3c(c2)N(CC)CCN(CC)C3)ncc1Cl
Metric Name: IC50
Measured Value: < 100 nM
//
Molecule: COc1cc2c(cc1Nc1ncc(Cl)c(Nc3ccc(Cl)cc3S(=O)(=O)N(C)C)n1)CCN(CC(=O)N1CCOCC1)CC2
Metric Name: IC50
Measured Value: < 100 nM
//
Molecule: COc1cc2c(cc1Nc1ncc(Cl)c(Nc3ccc(N4CCOCC4)cc3C)n1)CCN(CC(=O)N(C)C)CC2
Metric Name: IC50
Measured Value: < 100 nM
//
Molecule: COc1ccc(Nc2nc(Nc3cc4c(cc3OC)CN(CC3CC3)CC(=O)N4C)ncc2Cl)c(-n2cccn2)c1
Metric Name: IC50
Measured Value: < 100 nM
//
Molecule: COc1c(Nc2ncc(Cl)c(Nc3ccccc3S(=O)(=O)N3CC[C@@H](O)C3)n2)ccc2c1CCCC(NCCO)C2 (stereo partly shown)
Metric Name: IC50
Measured Value: < 100 nM
//
Molecule: COc1cc2c(cc1Nc1ncc(Cl)c(Nc3ccc(N4CCN(C(C)C)CC4)c4c3C(=O)N(C)C4)n1)CCN(CCO)CC2
Metric Name: IC50
Measured Value: < 100 nM
//
Molecule: COc1cc2c(cc1Nc1ncc(Cl)c(Nc3ccc(N4CCOCC4)cc3OC)n1)CCN(CC(=O)OC(C)C)CC2
Metric Name: IC50
Measured Value: < 100 nM
//
Molecule: CC(C)N1C(=O)CCCc2cc(Nc3ncc(Cl)c(N[C@@H]4CCCC[C@H]4NS(C)(=O)=O)n3)ccc21
Metric Name: IC50
Measured Value: < 100 nM
//
Molecule: CCN1CCN(CC)c2cc(Nc3ncc(Cl)c(Nc4ccccc4C(=O)OCCOC)n3)ccc2C1
Metric Name: IC50
Measured Value: < 100 nM
//
Molecule: COc1cc2c(cc1Nc1ncc(Cl)c(Nc3cc(Cl)ccc3OC)n1)CCN(CC(C)(F)F)CC2
Metric Name: IC50
Measured Value: 100 to 1000 nM
//
Molecule: COc1cc2c(cc1Nc1ncc(Cl)c(Nc3ccccc3S(=O)(=O)C(C)C)n1)CCN(CC(C)(F)F)CC2
Metric Name: IC50
Measured Value: < 100 nM
//
Molecule: CCN1C(=O)CCCc2c1ccc(Nc1ncc(Cl)c(NC3C4C=CC(C4)C3C(=O)N(C)C)n1)c2OC (stereo not shown)
Metric Name: IC50
Measured Value: 100 to 1000 nM
//
Molecule: Cc1ccc(-c2ccccc2Nc2nc(Nc3ccc4c(c3)CCCC(=O)N4C)ncc2Cl)nc1
Metric Name: IC50
Measured Value: 1000 to 10000 nM
//
Molecule: COc1ccc(Nc2ncc(Cl)c(N[C@H]3[C@@H](C(N)=O)[C@@H]4C=C[C@H]3C4)n2)c2c1CCCC(N1CCOCC1)C2 (single isomer, unassigned) [Example 943]
Metric Name: IC50
Measured Value: 1000 to 10000 nM
//
Molecule: CS(=O)(=O)N[C@@H]1CCCC[C@H]1Nc1nc(Nc2ccc3c(c2)CNCCO3)ncc1Cl
Metric Name: IC50
Measured Value: < 100 nM
//
Molecule: COCC(COC)N1CCc2cc(Nc3ncc(Cl)c(Nc4ccc(Cl)cc4S(=O)(=O)N(C)C)n3)c(OC)cc2CC1
Metric Name: IC50
Measured Value: < 100 nM
//
Molecule: COc1c(Nc2ncc(Cl)c(Nc3ccccc3S(=O)(=O)N(C)C)n2)ccc2c1CCC(N1CCOCC1)CC2 (stereo not shown)
Metric Name: IC50
Measured Value: < 100 nM
//
Molecule: CNC(=O)c1ccccc1Nc1nc(Nc2ccc3c(c2)OCCN(C)C3=O)ncc1Cl
Metric Name: IC50
Measured Value: < 100 nM
//
Molecule: CCN(CCO)Cc1cc(Nc2nc(Nc3ccc4c(c3OC)CCC(N3CCOCC3)CC4)ncc2Cl)ccc1F (stereo not shown)
Metric Name: IC50
Measured Value: < 100 nM
//
Molecule: COc1ccc(Nc2ncc(Cl)c(N[C@H]3[C@@H](C(N)=O)[C@@H]4C=C[C@H]3C4)n2)c2c1CCCC(N1CCOCC1)C2 (single isomer, unassigned) [Example 942]
Metric Name: IC50
Measured Value: 1000 to 10000 nM
//
Molecule: COc1cc(N2CCOCC2)ccc1Nc1nc(Nc2cccc3c2OCCCC3)ncc1Cl
Metric Name: IC50
Measured Value: < 100 nM
//
Molecule: COc1cc2c(cc1Nc1ncc(Cl)c(Nc3ccc(N(C)C)cc3-n3cccn3)n1)CCN(CC(=O)N(C)C)CC2
Metric Name: IC50
Measured Value: < 100 nM
//
Molecule: COc1c(Nc2ncc(Cl)c(N[C@H]3[C@@H](C(N)=O)[C@@H]4C=C[C@H]3C4)n2)ccc2c1CCC(NCC(F)(F)F)CC2 (stereo partly shown)
Metric Name: IC50
Measured Value: < 100 nM
//
Molecule: COc1ccccc1Nc1nc(Nc2cccc3c2OCCCC3)ncc1Cl
Metric Name: IC50
Measured Value: 1000 to 10000 nM
//
Molecule: COCCN1CCOc2ccc(Nc3ncc(Cl)c(N[C@@H]4CCCC[C@H]4NS(C)(=O)=O)n3)cc2C1
Metric Name: IC50
Measured Value: < 100 nM
//
Molecule: COc1cc2c(cc1Nc1ncc(Cl)c(Nc3ccc(N4CCN(C)CC4)c(C)c3)n1)CCN(CC(C)(F)F)CC2
Metric Name: IC50
Measured Value: < 100 nM
//
Molecule: CCN1CC(=O)N(CC)c2cc(Nc3ncc(Cl)c(N[C@H]4[C@@H](C(N)=O)[C@@H]5C=C[C@H]4C5)n3)c(OC)cc2C1
Metric Name: IC50
Measured Value: 100 to 1000 nM

---

Tested Target: baculovirus-expressed ALK (Homo sapiens, UniProt Q9UM73)
Construct: host or cells: baculovirus expression system
Measurement Notes: ALK Kinase Assay (ELISA-type, time-resolved fluorescence)
Assay type: biochemical
Test Settings: 1 μM ATP (Km level), 30 ng/ml ALK, 37° C., 15 minutes; read-out: ALK Activity (ALK kinase inhibition, IC50 class)
Recorded IC50 values for a group of molecules are listed next.
Metric Name: IC50

Molecule: CNC(=O)c1cccc(F)c1Nc1nc(Nc2ccc3c(c2)NC(=O)C(NC(=O)COC)CC3(C)C)ncc1Cl (stereo not drawn)
Measured Value: 0.1 to 1 µM
//
Molecule: C#CCNC(=O)c1cccc(F)c1Nc1nc(Nc2ccc3c(c2)OCCCN3CC)ncc1Cl
Measured Value: 0.1 to 1 µM
//
Molecule: CNC(=O)CN1CCc2cc(Nc3ncc(Cl)c(Nc4cc(C(N)=O)ccc4OC)n3)c(OC)cc2CC1
Measured Value: 0.1 to 1 µM
//
Molecule: NC(=O)c1cccc(F)c1Nc1nc(Nc2ccc3c(c2)NC(=O)CCC3)ncc1Cl
Measured Value: 0.1 to 1 µM
//
Molecule: COc1cc2c(cc1Nc1ncc(Cl)c(Nc3ccc(N(C)C)cc3OC)n1)CCN(CCS(C)(=O)=O)CC2
Measured Value: < 0.1 µM
//
Molecule: COc1cc2c(cc1Nc1ncc(Cl)c(N[C@@H]3CCCC[C@H]3NS(C)(=O)=O)n1)CCN(CCS(C)(=O)=O)CC2
Measured Value: < 0.1 µM
//
Molecule: CN(CCC#N)c1cccc(F)c1Nc1nc(Nc2ccc3c(c2)NC(=O)CCC3(C)C)ncc1Cl
Measured Value: 0.1 to 1 µM
//
Molecule: CNC(=O)c1cc(N(C)C)ccc1Nc1nc(Nc2ccc3c(c2)CCN(CCOC)CC3)ncc1Cl
Measured Value: < 0.1 µM
//
Molecule: O=C1CCCc2ccc(Nc3ncc(Cl)c(Nc4c(F)cc(F)cc4N4CCOCC4)n3)cc2N1
Measured Value: 1 to 10 µM
//
Molecule: COCCN1CCc2ccc(Nc3ncc(Cl)c(Nc4c(F)cccc4C(=O)NCC#N)n3)cc2CC1
Measured Value: < 0.1 µM
//
Molecule: CNC(=O)C1(Nc2nc(Nc3cc4c(cc3OC)CCN(CCOC)CC4)ncc2Cl)CC1
Measured Value: 1 to 10 µM
//
Molecule: COCCN1CCc2ccc(Nc3ncc(Cl)c(NC4CCCCC4)n3)cc2CC1
Measured Value: < 0.1 µM
//
Molecule: CCN1C(=O)C(N)CCc2c1ccc(Nc1ncc(Cl)c(Nc3ccccc3S(=O)(=O)N(C)C)n1)c2OC (stereo not drawn)
Measured Value: < 0.1 µM
//
Molecule: COc1cc2c(cc1Nc1ncc(Cl)c(Nc3ccccc3S(=O)(=O)N(C)C)n1)CCN(CCS(C)(=O)=O)CC2
Measured Value: < 0.1 µM
//
Molecule: COc1ccc2c(c1Nc1ncc(Cl)c(N[C@@H]3CCCC[C@H]3NS(C)(=O)=O)n1)CCC(N1CCOCC1)CC2 (stereo partly drawn)
Measured Value: 0.1 to 1 µM
//
Molecule: C#CCNC(=O)c1cccc(F)c1Nc1nc(Nc2ccc3c(c2)NC(=O)CCC3(C)C)ncc1Cl
Measured Value: 0.1 to 1 µM
//
Molecule: COCCN1CCc2ccc(Nc3ncc(Cl)c(Nc4c(F)cccc4S(=O)(=O)C(C)C)n3)cc2CC1
Measured Value: < 0.1 µM
//
Molecule: COCCN(C)S(=O)(=O)c1ccccc1Nc1nc(Nc2cc3c(cc2OC)CCN(CC(=O)N(C)C)CC3)ncc1Cl
Measured Value: < 0.1 µM
//
Molecule: CNC(=O)c1scc(C)c1Nc1nc(Nc2ccc3c(c2)CCN(CCOC)CC3)ncc1Cl
Measured Value: 0.1 to 1 µM
//
Molecule: COc1cc2c(cc1Nc1ncc(Cl)c(Nc3ccc(N4CCOCC4)cc3OC)n1)CCN(C(=O)CN(C)C)CC2
Measured Value: < 0.1 µM
//
Molecule: COc1ccc(Nc2nc(Nc3cc4c(cc3OC)CCN(CC(=O)N(C)C)CC4)ncc2Cl)c(S(=O)(=O)C(C)C)c1
Measured Value: < 0.1 µM
//
Molecule: CCN1CCCOc2cc(Nc3ncc(Cl)c(Nc4ccsc4C(=O)NC)n3)ccc21
Measured Value: 0.1 to 1 µM
//
Molecule: O=C1CCCc2ccc(Nc3ncc(Cl)c(Nc4c(F)cccc4OCCCOCc4ccccc4)n3)cc2N1
Measured Value: 1 to 10 µM
//
Molecule: CCCNC(=O)c1ccccc1Nc1nc(Nc2ccc3c(c2)CCCC(=O)N3)ncc1Cl
Measured Value: < 0.1 µM
//
Molecule: COc1cc2c(cc1Nc1ncc(Cl)c(N[C@H]3[C@@H](C(N)=O)[C@@H]4C=C[C@H]3C4)n1)CCC(NCC(F)F)CC2 (single isomer, unassigned) [Example 1054]
Measured Value: < 0.1 µM
//
Molecule: CCOC(=O)c1ccccc1Nc1nc(Nc2ccc3c(c2)CCN(CCOC)CC3)ncc1Cl
Measured Value: < 0.1 µM
//
Molecule: COc1cc2c(cc1Nc1ncc(Cl)c(Nc3ccccc3S(=O)(=O)N(C)C)n1)CCN(C(CF)CF)CC2
Measured Value: < 0.1 µM
//
Molecule: CCOC(=O)N1CCCOc2cc(Nc3ncc(Cl)c(Nc4ccccc4C(=O)NC)n3)ccc21
Measured Value: < 0.1 µM
//
Molecule: CNc1nc(N2CCOCC2)ccc1Nc1nc(Nc2cc3c(cc2OC)CCN(CC(=O)N(C)C)CC3)ncc1Cl
Measured Value: < 0.1 µM
//
Molecule: COCCN1CCc2ccc(Nc3ncc(Cl)c(N[C@@H]4CCCC[C@H]4N(CC#N)S(C)(=O)=O)n3)cc2CC1
Measured Value: 0.1 to 1 µM
